ASSAY_SYSTEM: T1, Apelin Receptor (APJ) stably overexpressed in CHO-K1 AGTRL1 Gi cells (UniProt P35414 1-380, limits assumed)
T1 sequence (looked up): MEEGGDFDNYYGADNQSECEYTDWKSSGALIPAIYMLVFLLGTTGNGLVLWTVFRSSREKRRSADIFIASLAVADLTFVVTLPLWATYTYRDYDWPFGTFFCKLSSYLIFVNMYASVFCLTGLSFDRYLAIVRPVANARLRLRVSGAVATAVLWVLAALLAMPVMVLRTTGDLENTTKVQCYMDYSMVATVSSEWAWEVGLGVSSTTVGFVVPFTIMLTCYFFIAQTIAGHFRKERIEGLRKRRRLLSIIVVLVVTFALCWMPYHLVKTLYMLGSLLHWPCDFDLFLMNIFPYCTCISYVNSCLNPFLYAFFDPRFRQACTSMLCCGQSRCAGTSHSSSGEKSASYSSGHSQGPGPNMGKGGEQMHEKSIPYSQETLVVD
ASSAY_OVERVIEW: cell-based or functional assay
Square brackets hold non-standard residues; d marks the D form. Primed or numbered codes have the meaning given here. Ends that are not written are not given here. PEG12′ = not defined here
Please respond with reported IC50 (M), inhibition of forskolin-stimulated cAMP accumulation for every item in the list.
State just the number; it will be interpreted in M.

# get_value(readout='IC50 (M), inhibition of forskolin-stimulated cAMP accumulation', item= RRMMGMVFQSLCG[dA] (also: acetate salt, HCl salt) [SEQ ID NO: 15] )
4.49e-06

Same lookup for [PEG12′]KRRIIGIVFQCLCG[dA] (cysteine pairing not given here) [SEQ ID NO: 42] , please.
4.38e-06

Same lookup for RRIIGIVFQSLCG[dA] [SEQ ID NO: 43] , please.
2.07e-06

Same lookup for KRRMMGMVFQSLCGA ((PEG12) at the N-terminal K; C-terminal (dA) = D-alanine) [SEQ ID NO: 36] , please.
1.6e-06

Same lookup for MRRMMGMVFQCLCGL [SEQ ID NO: 7] , please.
1.24e-06

Same lookup for KRRLLGLVFQSLCGA ((PEG12) at the N-terminal K; C-terminal (dA) = D-alanine) [SEQ ID NO: 37] , please.
2.5e-06
